- TARGET_UNDER_TEST: KRasG12C (M1-K169, biotinylated on the N-terminus) (Homo sapiens (Human), UniProt P01116, G12C)
- ASSAY_DETAILS: Covalent competition assay: scintillation proximity assay (SPA) quantifying covalent modification of KRASG12C
- CONDITION_DESCRIPTION: competition with radiolabeled covalent probe (Compound B/Compound A), 2 hours incubation, 10 nM KRasG12C
pIC50: −log10 of the molar value.
OBSERVABLE: pIC50

COMPOUND	OBSERVABLE	VAL
C=CC(=O)N1CC2(CC(n3nc(N4CCC(CN5CC6CC(C5)O6)CC4(C)C)c(-c4c(Cl)c(Cl)cc5[nH]ncc45)c3C)C2)C1 (single isomer, unassigned) [Example 228b]	pIC50	6.55
C=CC(=O)N1CC2(CC(n3nc(N4CC[C@@H](CN5CCN(C)[C@H](CO)C5)CC4(C)C)c(-c4c(Cl)c(Cl)cc5[nH]ncc45)c3C)C2)C1 (single isomer, unassigned) [Example 270b]	pIC50	8.30
C=CC(=O)N1CC2(CC(n3nc(N4CCN(c5cnn(C)c5)CC4(C)C)c(-c4c(Cl)c(C)cc5[nH]ncc45)c3C)C2)C1 (single isomer, unassigned) [Example 193a]	pIC50	4.68
C=CC(=O)N1CC2(CC(n3nc(N4CCC(N(CC)C5COC5)CC4(C)C)c(-c4c(Cl)c(Cl)cc5[nH]ncc45)c3C)C2)C1 (single isomer, unassigned) [Example 61a]	pIC50	6.06
C=CC(=O)N1CC2(CC(n3nc(N4CCC(N5C[C@H]6C[C@@H]5CN6S(C)(=O)=O)CC4(C)C)c(-c4c(Cl)c(Cl)cc5[nH]ncc45)c3C)C2)C1 (single isomer, unassigned) [Example 212b]	pIC50	7.92

A = C=CC(=O)N1CC2(CC(n3nc(N4CCC(CN5CC6COCC6C5)CC4(C)C)c(-c4c(Cl)c(Cl)cc5[nH]ncc45)c3C)C2)C1 (single isomer, unassigned) [Example 226b]
B = C=CC(=O)N1CC2(CC(n3nc(N4CCN(C(C)=O)C5(CCC5)C4)c(-c4c(Cl)c(C)cc5[nH]ncc45)c3C)C2)C1 (single isomer, unassigned) [Example 20b]
C = C=CC(=O)N1CC2(CC(n3nc(N4CCN(C5CCCOC5)C[C@]4(C)CC)c(-c4c(Cl)c(C)cc5[nH]ncc45)c3C)C2)C1 (single isomer, unassigned) [Example 157c]
# input Rank order required: pIC50, descending. // format: requested-order list of labels
# output C, A, B
(C: 8.22, A: 5.96, B: 4.42)

A = C=CC(=O)N1CC2(CC(n3nc(N4CC[C@@H](CN5CC6(CCOC6)C5)CC4(C)C)c(-c4c(Cl)c(Cl)cc5[nH]ncc45)c3C)C2)C1 (single isomer, unassigned) [Example 316a]
B = C=CC(=O)N1CC2(CC(n3nc(N4CC[C@@H](CN5CC6(C5)CN(C)C(=O)N6C)CC4(C)C)c(-c4c(Cl)c(Cl)cc5[nH]ncc45)c3C)C2)C1 (single isomer, unassigned) [Example 296b]
C = C=CC(=O)N1CC2(CC(n3nc(N4CCC5C(CC(=O)N5C)C4)c(-c4c(Cl)c(C)cc5[nH]ncc45)c3C)C2)C1 (single isomer, unassigned) [Example 38b]
# input Rank order required: pIC50, descending. // format: requested-order list of labels
# output B, C, A
(B: 8.22, C: 7.05, A: 5.92)

----------
- TARGET_UNDER_TEST: KRasG12C (M1-K169, biotinylated on the N-terminus) (Homo sapiens (Human), UniProt P01116, G12C)
- ASSAY_DETAILS: Covalent competition assay: scintillation proximity assay (SPA) quantifying covalent modification of KRASG12C
- CONDITION_DESCRIPTION: competition with radiolabeled covalent probe (Compound B/Compound A), 2 hours incubation, 10 nM KRasG12C
pIC50: −log10 of the molar value.
OBSERVABLE: pIC50

COMPOUND	OBSERVABLE	VAL
C=CC(=O)N1C[C@]2(C[C@H](n3nc(N4CC[C@@H](CN5CCN(C6COC6)CC5)CC4(C)C)c(-c4c(Cl)c(Cl)cc5[nH]ncc45)c3C)C2)[C@H]1C (single isomer, unassigned) [Example 201a]	pIC50	5.37

I = C=CC(=O)N1CC2(CC(n3nc(N4CCN(CCO)CC4(C)C)c(-c4c(Cl)c(C)cc5[nH]ncc45)c3C)C2)C1 (single isomer, unassigned) [Example 163b]
II = C=CC(=O)N1CC2(CC(n3nc(N4CC[C@@H](CN5CCO[C@@H](CO)C5)CC4(C)C)c(-c4c(Cl)c(Cl)cc5[nH]ncc45)c3C)C2)C1 (single isomer, unassigned) [Example 247b]
# input Hey, which is lower on measured pIC50, I or II ? Your answer should be the label attached to the chosen record.
# output I

----------
- TARGET_UNDER_TEST: KRasG12C (M1-K169, biotinylated on the N-terminus) (Homo sapiens (Human), UniProt P01116, G12C)
- ASSAY_DETAILS: Covalent competition assay: scintillation proximity assay (SPA) quantifying covalent modification of KRASG12C
- CONDITION_DESCRIPTION: competition with radiolabeled covalent probe (Compound B/Compound A), 2 hours incubation, 10 nM KRasG12C
pIC50: −log10 of the molar value.
OBSERVABLE: pIC50

As a guide, the following entries are already answered.
COMPOUND	pIC50
C=CC(=O)N1CC2(CC(n3nc(N4CC[C@@H](CN5CCN(C6COC6)CC5)CC4(C)C)c(-c4c(Cl)ccc5[nH]ncc45)c3C)C2)C1 (single isomer, unassigned) [Example 255a]	5.48
C=CC(=O)N1CC2(CC(n3nc(N4CCc5ncncc5C4)c(-c4c(Cl)c(C)cc5[nH]ncc45)c3C)C2)C1 (single isomer, unassigned) [Example 15a]	4.74
C=CC(=O)N1CC2(CC(n3nc(N4CCN(C5CCOCC5)C[C@]4(C)CCOC)c(-c4c(Cl)c(C)cc5[nH]ncc45)c3C)C2)C1 (single isomer, unassigned) [Example 87a]	7.89

A = C=CC(=O)N1CC2(CC(n3nc(N4CCn5nccc5C4C)c(-c4c(Cl)c(C)cc5[nH]ncc45)c3C)C2)C1 (single isomer, unassigned) [Example 42b]
B = C=CC(=O)N1CC2(CC(n3nc(N4CC[C@@H](OCCN5CCOCC5)CC4(C)C)c(-c4c(Cl)c(Cl)cc5[nH]ncc45)c3C)C2)C1 (single isomer, unassigned) [Example 110b]
C = C=CC(=O)N1CC2(CC(n3nc(N4CCN(C5COC5)C5COCC54)c(-c4c(Cl)c(C)cc5[nH]ncc45)c3C)C2)C1 (single isomer, unassigned) [Example 136a]
# input Sort (3 compounds) by pIC50: min first. // format: requested-order list of labels
# output C, A, B

----------
- TARGET_UNDER_TEST: KRasG12C (M1-K169, biotinylated on the N-terminus) (Homo sapiens (Human), UniProt P01116, G12C)
- ASSAY_DETAILS: Covalent competition assay: scintillation proximity assay (SPA) quantifying covalent modification of KRASG12C
- CONDITION_DESCRIPTION: competition with radiolabeled covalent probe (Compound B/Compound A), 2 hours incubation, 10 nM KRasG12C
- Protocol: Cells were harvested by centrifugation and frozen at −80° C. until further processing. […] The cells were lysed by 4 passages through an Avestin Emulsiflex at about 20000 psi and insoluble debris removed by centrifugation and filtered through a 0.45 µm Durapore membrane (Millipore). […] Eluted protein fractions were analyzed by Novex NuPage 4-12% PAGE. […] Positive fractions were determined by PAGE (Novex NuPage 4-12% BisTris) analysis. […]
pIC50: −log10 of the molar value.
OBSERVABLE: pIC50

As a guide, the following entries are already answered.
COMPOUND	pIC50
C=CC(=O)N1CC2(CC(n3nc(N4CCN(CC(F)(F)F)CC4(C)C)c(-c4c(Cl)c(C)cc5[nH]ncc45)c3C)C2)C1 (single isomer, unassigned) [Example 68b]	6.62
C=CC(=O)N1CC2(CC(n3nc(N4CC[C@@H](CN(CCO)CCOC)CC4(C)C)c(-c4c(Cl)c(Cl)cc5[nH]ncc45)c3C)C2)C1 (single isomer, unassigned) [Example 253a]	5.82

a = C=CC(=O)N1CC2(CC(n3nc(N4CCC5C(=O)N(C)CC5C4)c(-c4c(Cl)c(C)cc5[nH]ncc45)c3C)C2)C1 (stereo not shown) [Example 16]
b = C=CC(=O)N1CC2(CC(n3nc(N4CC[C@@H](CN(C)S(=O)(=O)N5CCN(C)CC5)CC4(C)C)c(-c4c(Cl)c(Cl)cc5[nH]ncc45)c3C)C2)C1 (single isomer, unassigned) [Example 304b]
c = C=CC(=O)N1CC2(CC(n3nc(N4CC[C@@H](CN5CCOCC5)CC4(C)C)c(-c4c(Cl)c(Cl)cc5[nH]ncc45)c3C)C2)C1 (single isomer, unassigned) [Example 213a]
d = C=CC(=O)N1CC2(CC(n3nc(N4CC[C@@H](CN5CCOCC5)CC4(C)C)c(-c4c(C)c(Cl)cc5[nH]ncc45)c3C)C2)C1 (single isomer, unassigned) [Example 233b]
e = C=CC(=O)N1CC2(CC(n3nc(N4CC(=O)N(C)CC45CCC5)c(-c4c(Cl)c(C)cc5[nH]ncc45)c3C)C2)C1 (single isomer, unassigned) [Example 65b]
# input Sort (5 compounds) by pIC50: min first. // format: requested-order list of labels
# output c, a, e, d, b
